Entry source: ChEMBL document CHEMBL4610061

Listed here are compounds together with their documented log10 of solubility.
assay: Solubility of compound; type: physicochemical
measurement kind: log10 of solubility (log10 of the value in µM)

CCOc1cc(Cl)c(-c2ccc(-c3nc4c(s3)CN(C(=O)CO)CC4)c(=O)[nH]2)cc1N1CCOCC1 : 0.85
CCOc1cc(Cl)c(C(=O)NC(=O)Nc2nc3ccc(S(=O)(=O)C4CCN(C)CC4)cc3s2)cc1-n1cccn1 : -0.70
CCOc1cc(Cl)c(C(=O)Nc2nc3ccccc3s2)cc1N1CCOCC1 : -1.05
CCOc1cc(Cl)c(C(=O)N(C)C(=O)Nc2nc3ccc(CN4CCN(C)CC4)cc3s2)cc1N1CCOCC1 : 2.69
CCOc1cc(Cl)c(C(=O)Nc2nc3ccc(S(=O)(=O)CCCN4CCN(C)CC4)cc3s2)cc1N1CCOCC1 : 2.51

---

target: Hydroxycarboxylic acid receptor 2 (Homo sapiens, UniProt Q8TDS4); test: Agonist activity at human GPR109A receptor
Sequence (Q8TDS4 whole entry): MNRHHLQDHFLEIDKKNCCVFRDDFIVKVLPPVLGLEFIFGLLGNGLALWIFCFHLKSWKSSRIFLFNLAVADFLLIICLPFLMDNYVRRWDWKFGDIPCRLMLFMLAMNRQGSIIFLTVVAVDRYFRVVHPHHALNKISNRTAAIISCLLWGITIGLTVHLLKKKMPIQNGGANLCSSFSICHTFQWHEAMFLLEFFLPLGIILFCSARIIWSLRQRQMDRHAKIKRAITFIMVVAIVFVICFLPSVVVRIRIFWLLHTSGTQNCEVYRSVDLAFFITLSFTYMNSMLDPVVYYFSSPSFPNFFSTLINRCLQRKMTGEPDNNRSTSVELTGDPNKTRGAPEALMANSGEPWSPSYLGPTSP
pEC50: −log10 of the molar value.
measurement kind: pEC50

CCOc1cc(Cl)c(-c2ccc(-c3nc4c(s3)CN(C(=O)COC)CC4)c(=O)[nH]2)cc1N1CCOCC1 : 5.72
CCOc1cc(Cl)c(-c2ccc(-c3nc4ccc(S(=O)(=O)C5CCN(C)CC5)cc4s3)c(=O)[nH]2)cc1N1CCOCC1 : 7.43
CCOc1cc(Cl)c(-c2ccc(-c3nc4c(s3)CN(C(=O)CO)CC4)c(=O)[nH]2)cc1N1CCOCC1 : 6.04
CCOc1cc(Cl)c(-c2ncc(-c3nc4ccc(S(=O)(=O)C5CCN(C)CC5)cc4s3)c(=O)[nH]2)cc1N1CCOCC1 : 5.80
CCOc1cc(Cl)c(C(=O)Nc2nc3ccccc3s2)cc1N1CCOCC1 : 4.92
CCOc1cc(Cl)c(C(=O)NC(=O)Nc2nc3ccc(S(=O)(=O)C4CCN(C)CC4)cc3s2)cc1-n1cccn1 : 6.91
CCOc1cc(Cl)c(C(=O)NC(=O)Nc2nc3ccc(CN4CCN(C)CC4)cc3s2)cc1N1CCOCC1 : 5.67
CCOc1cc(Cl)c(-c2ccc(-c3nc4ccccc4s3)c(=O)[nH]2)cc1N1CCOCC1 : 6.21
CCOc1cc(Cl)c(C(=O)Nc2nc3ccc(OC4CCN(C)CC4)cc3s2)cc1N1CCOCC1 : 5.80
CCOc1cc(Cl)c(C(=O)Nc2nc3ccc(S(=O)(=O)CCCN4CCN(C)CC4)cc3s2)cc1N1C[C@@H](C)O[C@@H](C)C1 : 6.18
CCOc1cc(Cl)c(C(=O)Nc2nc3ccc(S(=O)(=O)CCCN4CCN(C)CC4)cc3s2)cc1N1CCO[C@H](C)C1 : 5.85

---

assay: Distribution coefficient, logD of compound at pH 7.4; assay type: physicochemical; conditions: octanol/water
measurement kind: logD

CCOc1cc(Cl)c(-c2ncc(-c3nc4ccc(S(=O)(=O)C5CCN(C)CC5)cc4s3)c(=O)[nH]2)cc1N1CCOCC1 : 1.6
CCOc1cc(Cl)c(C(=O)NC(=O)Nc2nc3ccc(CN4CCN(C)CC4)cc3s2)cc1-c1ccn[nH]1 : 3.9
CCOc1cc(Cl)c(C(=O)Nc2nc3ccc(S(=O)(=O)CCCN4CCN(C)CC4)cc3s2)cc1N1C[C@@H](C)O[C@@H](C)C1 : 2.7
